System: 233499-124-R-J3-PDC complex spheroid growth
assay.explanation: Anticancer human tumor 233499-124-R-J3-PDC patient-derived colon adenocarcinoma cell line growth inhibition [AhR]
experimental.parameters: curve of first compound; second compound 0.316 µM
test.readout: IC50

Worked set:
molecule: CCc1c2c(nc3ccc(O)cc13)-c1cc3c(c(=O)n1C2)COC(=O)[C@]3(O)CC + CC(CO)NC(=O)c1cc(-c2ccc(Cl)cc2)nn(-c2cnn(C)c2)c1=O
target.of.assay: 233499-124-R-J3-PDC complex spheroid growth
test.readout: IC50
result: > 0.3 µM
//
molecule: CC(C)c1c(-c2ccccc2)nc2c(C#N)c[nH]n2c1=O + Cc1ccccc1N=Nc1ccc(NC(=O)c2ccnn2C)c(C)c1
target.of.assay: 233499-124-R-J3-PDC complex spheroid growth
test.readout: IC50
result: > 10 µM
//
molecule: CC(C)CC(NC(=O)C(Cc1ccccc1)NC(=O)c1cnccn1)B(O)O (configuration not stated) + CC(CO)NC(=O)c1cc(-c2ccc(Cl)cc2)nn(-c2cnn(C)c2)c1=O
target.of.assay: 233499-124-R-J3-PDC complex spheroid growth
test.readout: IC50
result: 0.00801 µM
//
molecule: CCc1c2c(nc3ccc(O)cc13)-c1cc3c(c(=O)n1C2)COC(=O)[C@]3(O)CC + Cc1ccccc1N=Nc1ccc(NC(=O)c2ccnn2C)c(C)c1
target.of.assay: 233499-124-R-J3-PDC complex spheroid growth
test.readout: IC50
result: > 0.3 µM

# get_value(readout='IC50', item= O=C(c1cc(Cc2n[nH]c(=O)c3ccccc23)ccc1F)N1CCN(C(=O)C2CC2)CC1 + Cc1cncc(-c2nc(NCCc3c[nH]c4ccccc34)c3ncn(C(C)C)c3n2)c1 )
> 10 µM

# get_value(readout='IC50', item= O=C(C=Cn1cnc(-c2cc(C(F)(F)F)cc(C(F)(F)F)c2)n1)NNc1cnccn1 + Cc1cncc(-c2nc(NCCc3c[nH]c4ccccc34)c3ncn(C(C)C)c3n2)c1 )
> 3 µM

# get_value(readout='IC50', item= CC1COCCN1c1cc(C2(S(C)(=N)=O)CC2)nc(-c2ccnc3[nH]ccc23)n1 (configuration not stated) + CC(CO)NC(=O)c1cc(-c2ccc(Cl)cc2)nn(-c2cnn(C)c2)c1=O )
> 10 µM

====

Test system: 233499-124-R-J3-PDC complex spheroid growth
assay.explanation: Anticancer human tumor 233499-124-R-J3-PDC cell line growth inhibition [AhR];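 note: spheroids exposed to agents for seven days before reading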
experimental.parameters: curve of first compound; second compound 0.316 µM
pIC50: −log10 of the molar value.
We begin with a simple list: items and their reported pIC50.

Worked set:
compound: O=C(C=Cc1cccc(S(=O)(=O)Nc2ccccc2)c1)NO + Cc1cncc(-c2nc(NCCc3c[nH]c4ccccc34)c3ncn(C(C)C)c3n2)c1
test.readout: pIC50
result: 5.24
--
compound: CC1(C)CCC(CN2CCN(c3ccc(C(=O)NS(=O)(=O)c4ccc(NCC5CCOCC5)c([N+](=O)[O-])c4)c(Oc4cnc5[nH]ccc5c4)c3)CC2)=C(c2ccc(Cl)cc2)C1 + Cc1ccccc1N=Nc1ccc(NC(=O)c2ccnn2C)c(C)c1
test.readout: pIC50
result: 5.06
--
compound: COc1cc(C2c3cc4c(cc3C(OC3OC5COC(C)OC5C(O)C3O)C3COC(=O)C23)OCO4)cc(OC)c1O (stereo not given) + CC(CO)NC(=O)c1cc(-c2ccc(Cl)cc2)nn(-c2cnn(C)c2)c1=O
test.readout: pIC50
result: < 5.00
--
compound: CCc1c2c(nc3ccc(O)cc13)-c1cc3c(c(=O)n1C2)COC(=O)[C@]3(O)CC + Cc1cncc(-c2nc(NCCc3c[nH]c4ccccc34)c3ncn(C(C)C)c3n2)c1
test.readout: pIC50
result: < 6.52
--
compound: CCN(c1cc(-c2ccc(CN3CCOCC3)cc2)cc(C(=O)NCc2c(C)cc(C)[nH]c2=O)c1C)C1CCOCC1 + Cc1cncc(-c2nc(NCCc3c[nH]c4ccccc34)c3ncn(C(C)C)c3n2)c1
test.readout: pIC50
result: < 5.52

Turning now to a further compound:
# get_value(readout='pIC50', item= O=C(c1cc(Cc2n[nH]c(=O)c3ccccc23)ccc1F)N1CCN(C(=O)C2CC2)CC1 + Cc1ccccc1N=Nc1ccc(NC(=O)c2ccnn2C)c(C)c1 )
< 5.00
